- Tested Target: ENPP1 (Homo sapiens, UniProt P22413)
- Sequence (P22413 1-925): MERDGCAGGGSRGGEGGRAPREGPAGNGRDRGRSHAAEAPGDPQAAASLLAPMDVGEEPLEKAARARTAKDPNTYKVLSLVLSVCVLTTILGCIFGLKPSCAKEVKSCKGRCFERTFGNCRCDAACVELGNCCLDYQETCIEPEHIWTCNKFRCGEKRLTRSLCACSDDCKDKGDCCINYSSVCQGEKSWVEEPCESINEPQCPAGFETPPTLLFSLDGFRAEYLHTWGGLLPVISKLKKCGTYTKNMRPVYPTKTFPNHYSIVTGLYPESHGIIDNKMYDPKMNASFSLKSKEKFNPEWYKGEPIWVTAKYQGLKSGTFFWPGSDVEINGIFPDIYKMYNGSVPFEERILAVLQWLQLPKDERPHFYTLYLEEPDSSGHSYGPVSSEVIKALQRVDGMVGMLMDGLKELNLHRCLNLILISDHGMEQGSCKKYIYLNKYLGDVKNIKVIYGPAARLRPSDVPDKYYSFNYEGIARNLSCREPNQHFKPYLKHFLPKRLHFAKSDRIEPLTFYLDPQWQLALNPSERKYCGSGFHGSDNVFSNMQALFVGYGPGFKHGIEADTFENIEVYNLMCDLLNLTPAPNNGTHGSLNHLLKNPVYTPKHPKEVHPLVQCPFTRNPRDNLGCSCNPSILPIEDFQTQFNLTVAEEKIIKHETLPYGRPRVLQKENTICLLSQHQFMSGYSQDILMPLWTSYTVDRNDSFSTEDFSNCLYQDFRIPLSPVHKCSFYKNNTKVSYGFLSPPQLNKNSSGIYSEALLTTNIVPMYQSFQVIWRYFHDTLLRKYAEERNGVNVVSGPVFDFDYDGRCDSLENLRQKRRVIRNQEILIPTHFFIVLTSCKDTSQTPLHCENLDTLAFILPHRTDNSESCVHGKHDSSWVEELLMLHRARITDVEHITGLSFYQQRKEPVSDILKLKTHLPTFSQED
- Assay Comment: Indirect quantitation of 2',3'-cGAMP hydrolysis (AMP-Glo Assay kit)
- Format: biochemical
- Experimental Setup: cGAMP substrate; Ki from IC50 by Cheng-Prusoff; read-out: ENPP1 Inhibition -cGAMP: Ki
pKi: −log10 of the molar value.
Recorded pKi by entry

# Molecule, Tested Target, pKi
rows = [
    ("COc1ccc2c(Oc3ccc(S(N)(=O)=O)cc3)ccnc2n1 [Example 361]", "ENPP1 (Homo sapiens, UniProt P22413)", "> 7.00"),
    ("COc1ccc2c(N3CCc4ccc(NS(N)(=O)=O)cc43)ccnc2c1 [Example 391]", "ENPP1 (Homo sapiens, UniProt P22413)", "< 6.00"),
    ("COc1cc(C#N)c(C(=O)N2CCC(CCNS(N)(=O)=O)CC2)cc1OC [Example 129]", "ENPP1 (Homo sapiens, UniProt P22413)", "< 6.00"),
    ("COc1cc(NC(C)=O)c(C(=O)N2CCC(CCNS(N)(=O)=O)CC2)cc1OC [Example 44]", "ENPP1 (Homo sapiens, UniProt P22413)", "< 6.00"),
    ("CNc1nc(N2CCC(CCNS(N)(=O)=O)CC2)c2cc(OC)c(OC)cc2n1 [Example 2]", "ENPP1 (Homo sapiens, UniProt P22413)", "> 7.00"),
    ("COc1cc2ncc(-c3ccc(CNS(N)(=O)=O)cc3)nc2cc1OC [Example 278]", "ENPP1 (Homo sapiens, UniProt P22413)", "< 6.00"),
    ("COc1cc2nccc(Oc3ccc4c(c3)CNS(=O)(=O)N4)c2cc1OC [Example 263]", "ENPP1 (Homo sapiens, UniProt P22413)", "6.00 to 7.00"),
    ("CCOc1ccc(S(=O)(=O)N2CCN(C)CC2)cc1-c1ncnc2cc(OC)c(OC)cc12 [Example 337]", "ENPP1 (Homo sapiens, UniProt P22413)", "< 6.00"),
    ("COc1ccc2c(N3CCC(CCNS(N)(=O)=O)CC3)ncnc2c1 [Example 198]", "ENPP1 (Homo sapiens, UniProt P22413)", "> 7.00"),
    ("COc1cc2c(N3CCC(CCNS(N)(=O)=O)CC3)c(C#N)cnc2cn1 [Example 216]", "ENPP1 (Homo sapiens, UniProt P22413)", "> 7.00"),
    ("COc1cc2ncnc(N3CCc4cc(NS(N)(=O)=O)ccc4C3)c2cc1OC [Example 137]", "ENPP1 (Homo sapiens, UniProt P22413)", "> 7.00"),
    ("COc1cc2ncc(-c3ccc4c(c3)CN(S(N)(=O)=O)CC4)nc2cc1OC [Example 295]", "ENPP1 (Homo sapiens, UniProt P22413)", "< 6.00"),
    ("COc1ccc2c(Oc3cc(F)c(NS(N)(=O)=O)cc3F)ccnc2c1 [Example 79]", "ENPP1 (Homo sapiens, UniProt P22413)", "> 7.00"),
    ("COc1cc2nccc(NCc3ccc(NS(N)(=O)=O)cc3)c2cc1OC [Example 180]", "ENPP1 (Homo sapiens, UniProt P22413)", "6.00 to 7.00"),
    ("COc1cc2ncnc(OCc3ccc(NS(N)(=O)=O)cc3)c2cc1OC [Example 179]", "ENPP1 (Homo sapiens, UniProt P22413)", "< 6.00"),
    ("COc1ccc2c(-c3ccc(CNS(N)(=O)=O)c(C)c3)ccnc2c1 [Example 374]", "ENPP1 (Homo sapiens, UniProt P22413)", "> 7.00"),
    ("COc1ccc2c(Nc3ccc(NS(N)(=O)=O)cc3)ccnc2c1F [Example 269]", "ENPP1 (Homo sapiens, UniProt P22413)", "> 7.00"),
    ("NS(=O)(=O)NCCC1CCN(c2ncnc3cc(OC(F)(F)F)ccc23)CC1 [Example 209]", "ENPP1 (Homo sapiens, UniProt P22413)", "< 6.00"),
    ("COc1cc2cnn(-c3ccc(CNS(N)(=O)=O)cc3)c2cc1OC [Example 166]", "ENPP1 (Homo sapiens, UniProt P22413)", "6.00 to 7.00"),
    ("NS(=O)(=O)NCCC1CCN(c2cc(-c3ccc4ncoc4c3)ncn2)CC1 [Example 9]", "ENPP1 (Homo sapiens, UniProt P22413)", "< 6.00"),
    ("COc1ccc2c(Oc3ccc(NS(N)(=O)=O)cc3)c(C)cnc2c1 [Example 300]", "ENPP1 (Homo sapiens, UniProt P22413)", "> 7.00"),
    ("COc1cc2ncc(Nc3ccc(NS(N)(=O)=O)cc3)nc2cc1OC [Example 286]", "ENPP1 (Homo sapiens, UniProt P22413)", "< 6.00"),
    ("COc1ccc2c(-c3ccc(CN(C)S(N)(=O)=O)cc3)ccnc2c1 [Example 368]", "ENPP1 (Homo sapiens, UniProt P22413)", "> 7.00"),
    ("COc1cc2nc(-c3ccncc3)nc(N3CCC(CCNS(N)(=O)=O)CC3)c2cc1OC [Example 6]", "ENPP1 (Homo sapiens, UniProt P22413)", "6.00 to 7.00"),
    ("COc1ccc2c(Oc3ccc(NS(N)(=O)=O)cc3)ccnc2c1F [Example 268]", "ENPP1 (Homo sapiens, UniProt P22413)", "< 6.00"),
    ("NS(=O)(=O)NCCC1CCN(c2ccncn2)CC1 [Example 18]", "ENPP1 (Homo sapiens, UniProt P22413)", "< 6.00"),
    ("COc1cc2nccc(Oc3ccc(NS(=O)(=O)C4CCC4)cc3)c2cc1OC [Example 261]", "ENPP1 (Homo sapiens, UniProt P22413)", "6.00 to 7.00"),
    ("COc1cc2ncnc(N3CC=C(c4ccc5c(c4)COB5O)CC3)c2cc1OC [Example 157]", "ENPP1 (Homo sapiens, UniProt P22413)", "> 7.00"),
    ("CCNS(=O)(=O)NCCC1CCN(c2ncnc3cc(OC)c(OC)cc23)CC1 [Example 139]", "ENPP1 (Homo sapiens, UniProt P22413)", "< 6.00"),
    ("COc1cc2nccc(N(C)Cc3ccc(NS(N)(=O)=O)cc3)c2cc1OC [Example 255]", "ENPP1 (Homo sapiens, UniProt P22413)", "< 6.00"),
    ("COc1ccc(S(=O)(=O)N2CCN(CCNS(N)(=O)=O)CC2)cc1OC [Example 152]", "ENPP1 (Homo sapiens, UniProt P22413)", "< 6.00"),
    ("COc1ccc2c(-c3ccc(CNS(N)(=O)=O)nc3)ccnc2c1 [Example 354]", "ENPP1 (Homo sapiens, UniProt P22413)", "> 7.00"),
    ("COc1ccc2c(-c3ccc(CNS(N)(=O)=O)cc3)c(C#N)cnc2c1 [Example 244]", "ENPP1 (Homo sapiens, UniProt P22413)", "> 7.00"),
    ("COc1ccc2c(Oc3ccc(NS(N)(=O)=O)cc3F)ccnc2c1 [Example 71]", "ENPP1 (Homo sapiens, UniProt P22413)", "> 7.00"),
    ("COc1ccc2c(-c3ccc4c(c3)CN(S(N)(=O)=O)CC4)ccnc2c1 [Example 305]", "ENPP1 (Homo sapiens, UniProt P22413)", "> 7.00"),
    ("COc1cc2nc(N(C)C)nc(N3CCC(CCNC=O)CC3)c2cc1OC [Example 118]", "ENPP1 (Homo sapiens, UniProt P22413)", "< 6.00"),
]
